Every entry's value here was drawn from patent US10011573B2.

Molecular target: androgen receptor (AR) (Homo sapiens, UniProt P10275, T878A)
Sequence (P10275 whole entry T878A): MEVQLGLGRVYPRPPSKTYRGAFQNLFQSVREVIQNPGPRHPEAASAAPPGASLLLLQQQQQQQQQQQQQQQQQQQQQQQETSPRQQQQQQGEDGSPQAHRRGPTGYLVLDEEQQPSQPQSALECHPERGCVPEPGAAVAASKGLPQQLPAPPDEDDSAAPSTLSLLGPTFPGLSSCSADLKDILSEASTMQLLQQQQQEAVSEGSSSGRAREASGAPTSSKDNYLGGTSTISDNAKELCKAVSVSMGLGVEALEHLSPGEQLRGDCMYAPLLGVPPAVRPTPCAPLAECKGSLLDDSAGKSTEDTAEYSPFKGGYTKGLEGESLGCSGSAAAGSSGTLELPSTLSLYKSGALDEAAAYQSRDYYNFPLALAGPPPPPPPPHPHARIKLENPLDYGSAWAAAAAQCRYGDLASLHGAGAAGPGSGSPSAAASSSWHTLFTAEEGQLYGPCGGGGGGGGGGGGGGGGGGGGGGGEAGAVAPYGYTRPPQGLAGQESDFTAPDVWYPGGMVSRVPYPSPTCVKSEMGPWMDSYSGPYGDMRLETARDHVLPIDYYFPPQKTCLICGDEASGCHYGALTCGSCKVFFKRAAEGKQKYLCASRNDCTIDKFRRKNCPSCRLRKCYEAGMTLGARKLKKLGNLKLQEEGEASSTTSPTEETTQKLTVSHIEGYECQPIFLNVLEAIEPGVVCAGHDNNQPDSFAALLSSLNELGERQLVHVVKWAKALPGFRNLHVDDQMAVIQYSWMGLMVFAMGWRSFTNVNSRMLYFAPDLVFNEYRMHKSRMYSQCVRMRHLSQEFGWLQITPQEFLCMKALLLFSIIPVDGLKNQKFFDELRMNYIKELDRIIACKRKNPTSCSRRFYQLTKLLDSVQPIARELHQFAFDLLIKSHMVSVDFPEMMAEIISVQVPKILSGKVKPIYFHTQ
Test: eGFP cellular AR transcription assay (LNCaP eGFP cells, LN-ARR2PB-eGFP)
assay-endpoint: % Inhibition (3 μM) (%)
One number for each entry, in %.

Record % Inhibition (3 μM) per entry; entries follow.
1. OCc1sc(N2CCOCC2)nc1-c1ccccc1 [Compound 14274]
2. Oc1ccc(-c2csc(N3CCOCC3)n2)c(O)c1 [Compound 14295]
3. Fc1ccccc1-c1csc(N2CCOCC2)n1 [Compound 14286]
4. COc1ccc(-c2csc(N3CCOCC3)n2)c(OC)c1 [Compound 14268]
5. COc1ccc(-c2csc(N3CCOCC3)n2)cc1 [Compound 14249]
6. Clc1cnccc1-c1csc(N2CCOCC2)n1 [Compound 14446]

Response line:
[5.04, 24.7, 85.86, 37.55, 45.16, 24]

Record % Inhibition (3 μM) per entry; entries follow.
1. COc1c(Cl)cc(-c2csc(N3CCOCC3)n2)cc1Cl [Compound 14288]
2. c1ccc(-c2csc(N3CCCC3)n2)cc1 [Compound 14351]
3. CS(=O)(=O)Nc1ccc(-c2csc(N3CCOCC3)n2)cc1 [Compound 14276]
4. COc1ccc(-c2csc(N3CCOCC3)n2)cc1OC [Compound 14252]

Response line:
1. 35.89
2. 38.4
3. 25.98
4. 26.03
